Data origin: ChEMBL document CHEMBL1125626

- Test system: Escherichia coli
- testProtocol: Minimum inhibitory concentration against Escherichia coli DCO (inoculum, 10e4 cfu per spot)
- Type: functional
Field: MIC. Provide a value for each of the compounds that follow.
Number in µg/mL, nothing else.

# input What MIC value was documented for this compound, CC(=O)OCC1=C(C(=O)OC(C)(C)C)N2C(=O)[C@@H](Nc3nc4cc(N)ccc4[nH]3)C2SC1 (stereo partly drawn) ?
# output 0.06

# input Please give the result for CC1=C(C(=O)OC(c2ccccc2)c2ccccc2)N2C(=O)[C@@H](NC3=NC(C)C(C)N3)C2SC1 (stereo partly drawn) too.
# output 4

# input Try CC(=O)OCC1=C(C(=O)OC(C)(C)C)N2C(=O)[C@@H](Nc3nc4ccc[nH]c-4n3)C2SC1 (stereo partly drawn) next.
# output 0.5

# input One more compound: CO/N=C(\C(=O)N[C@@H]1C(=O)N2C(C(=O)O)=C(COC(C)=O)CS[C@H]12)c1csc(N)n1 [CEFOTAXIME]
# output 0.03

# input Consider next the compound CC(=O)OCC1=C(C(=O)OC(C)(C)C)N2C(=O)[C@@H](Nc3nc4ccccc4n3C)C2SC1 (stereo partly drawn) in the same way.
# output 64

# input Continue with CC(=O)OCC1=C(C(=O)OC(C)(C)C)N2C(=O)[C@@H](Nc3nc4cc([N+](=O)[O-])ccc4[nH]3)C2SC1 (stereo partly drawn)
# output 128

# input Follow-up item: CC(=O)OCC1=C(C(=O)OC(c2ccccc2)c2ccccc2)N2C(=O)[C@@H](Nc3nc4cc(C(=O)O)ccc4[nH]3)C2SC1 (stereo partly drawn)
# output 8

====

- System: Staphylococcus aureus
- testProtocol: Minimum inhibitory concentration against Staphylococcus aureus A4 (inoculum, 10e5 cfu per spot)
- Assay type: functional
experimentalReadout: MIC (µg/mL)
Quick reminder: number only, in µg/mL, skip the unit.

# input Give MIC (Staphylococcus aureus) of the following compound: CC(=O)OCC1=C(C(=O)OC(C)(C)C)N2C(=O)[C@@H](Nc3nc4ccc[nH]c-4n3)C2SC1 (stereo partly drawn)
# output 64

# input And CO/N=C(\C(=O)N[C@@H]1C(=O)N2C(C(=O)O)=C(COC(C)=O)CS[C@H]12)c1csc(N)n1 [CEFOTAXIME] ?
# output 32

# input And for Cc1nnc(SCC2=C(C(=O)OC(c3ccccc3)c3ccccc3)N3C(=O)[C@@H](Nc4nc5ccccc5[nH]4)C3SC2)s1 (stereo partly drawn) ?
# output 8

# input Now consider CC(=O)OCC1=C(C(=O)OC(c2ccccc2)c2ccccc2)N2C(=O)[C@@H](Nc3nc4cc(CO)ccc4[nH]3)C2SC1 (stereo partly drawn) and answer again.
# output 64

# input Another: CC(=O)OCC1=C(C(=O)OC(c2ccccc2)c2ccccc2)N2C(=O)[C@@H](Nc3nc4cscc4[nH]3)C2SC1 (stereo partly drawn)
# output 32

====

Answer each item with its documented MIC.
- System: Pseudomonas aeruginosa
- testProtocol: Minimum inhibitory concentration against Pseudomonas aeruginosa A21 (inoculum, 10e5 cfu per spot)
- Assay type: functional

# input molecule: CC(=O)OCC1=C(C(=O)OC(C)(C)C)N2C(=O)[C@@H](Nc3nc4cc([N+](=O)[O-])ccc4[nH]3)C2SC1 (stereo partly drawn) ; wanted: its MIC
# output > 200 µg/mL

# input Try the molecule CC(=O)OCC1=C(C(=O)OC(c2ccccc2)c2ccccc2)N2C(=O)[C@@H](Nc3nc4cc(CN)ccc4[nH]3)C2SC1 (stereo partly drawn)
# output > 256 µg/mL

# input Try the molecule CC(=O)OCC1=C(C(=O)OC(c2ccccc2)c2ccccc2)N2C(=O)[C@@H](Nc3nc4c(C)cccc4[nH]3)C2SC1 (stereo partly drawn)
# output ≥ 128 µg/mL

# input CC(=O)OCC1=C(C(=O)OC(C)(C)C)N2C(=O)[C@@H](Nc3nc4cc[nH]cc-4n3)C2SC1 (stereo partly drawn) , same question.
# output > 256 µg/mL

# input What do you have for Cc1nnc(SCC2=C(C(=O)OC(c3ccccc3)c3ccccc3)N3C(=O)[C@@H](Nc4nc5ccccc5[nH]4)C3SC2)s1 (stereo partly drawn) ?
# output ≥ 128 µg/mL

# input Consider next the molecule CC(=O)OCC1=C(C(=O)OC(C)(C)C)N2C(=O)[C@@H](Nc3nc4ccc[nH]c-4n3)C2SC1 (stereo partly drawn) in the same way.
# output > 256 µg/mL

# input How about this molecule: CC1(C)S[C@@H]2[C@H](/N=C/N3CCCCCC3)C(=O)N2[C@H]1C(=O)O [AMDINOCILLIN]
# output > 256 µg/mL

# input // repeat for CC1=C(C(=O)OC(c2ccccc2)c2ccccc2)N2C(=O)[C@@H](NC3=NC(c4ccccc4)CN3)C2SC1 (stereo partly drawn) and report
# output > 256 µg/mL
